Entry source: ChEMBL document CHEMBL1128462

experimentalSystem: Norepinephrine transporter (Rattus norvegicus)
Sequence (Q9WTR4 whole entry): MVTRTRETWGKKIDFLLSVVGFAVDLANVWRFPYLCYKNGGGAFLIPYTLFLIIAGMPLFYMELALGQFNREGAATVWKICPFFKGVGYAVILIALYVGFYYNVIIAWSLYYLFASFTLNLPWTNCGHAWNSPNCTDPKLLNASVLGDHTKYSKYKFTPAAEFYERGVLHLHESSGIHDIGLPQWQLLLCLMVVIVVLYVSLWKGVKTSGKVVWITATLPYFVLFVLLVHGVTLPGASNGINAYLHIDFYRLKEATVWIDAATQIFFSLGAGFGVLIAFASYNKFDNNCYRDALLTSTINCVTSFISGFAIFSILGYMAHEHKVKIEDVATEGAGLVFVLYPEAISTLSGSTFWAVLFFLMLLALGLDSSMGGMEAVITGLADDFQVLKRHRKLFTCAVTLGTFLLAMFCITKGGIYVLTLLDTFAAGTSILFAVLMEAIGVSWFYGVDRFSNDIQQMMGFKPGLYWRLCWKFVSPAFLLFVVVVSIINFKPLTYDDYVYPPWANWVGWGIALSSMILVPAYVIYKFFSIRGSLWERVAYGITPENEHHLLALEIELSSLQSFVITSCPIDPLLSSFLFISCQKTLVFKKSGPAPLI
assayExplanation: Evaluated for the Non competitive inhibition of uptake of norepinephrine
resultType: pKi
Keep in mind that pKi stands for -log10 of concentration in molar terms.

Request the reported pKi associated with CC(N)Cc1cc(O)c(N)cc1O (stereo unspecified)
9.00

---

Control: recorded values
Species on record: Mus musculus
assayExplanation: Long term depletion of Norepinephrine (NE) in Whole mouse Brain at a high dose (300 nmol)
Format: functional
Please give a number only; it is taken to be in %.

Example cases with answers are listed next.
molecule	resultType	resultValue
NCCc1cc(O)c(N)cc1O	Control	39
CC(N)Cc1cc(O)c(N)cc1O (configuration not stated)	Control	40
CC(N)Cc1cc(O)c(O)cc1N (configuration not stated)	Control	26
CC(N)Cc1cc(N)c(O)cc1O (configuration not stated)	Control	22
NCCc1cc(N)c(O)cc1O	Control	36

Request the reported Control associated with NCCc1cc(O)c(O)cc1N
37

Next molecule: NCCc1cc(O)c(O)cc1O [OXIDOPAMINE]
35

---

Species: Mus musculus
assayExplanation: Long term depletion of Norepinephrine (NE) in Whole mouse Brain at a low dose (60 nmol)
Format: functional
Control: recorded values
Please give a number only; it is taken to be in %.

compound	Control / %
CC(N)Cc1cc(N)c(O)cc1O (stereo not drawn)	26

Request the reported Control associated with NCCc1cc(O)c(O)cc1N
40

---

experimentalSystem: Norepinephrine transporter (Rattus norvegicus)
assayExplanation: Evaluated for the Competitive inhibition of uptake of norepinephrine
Ki: recorded values
Please give a number only; it is taken to be in nM.

compound	experimentalSystem	resultType	resultValue
NCCc1cc(O)c(O)cc1N	Norepinephrine transporter (Rattus norvegicus)	Ki	11

Request the reported Ki associated with NCCc1cc(N)c(O)cc1O
13

Next compound: NCCc1cc(O)c(O)cc1O
51

Next compound: CC(N)Cc1cc(N)c(O)cc1O (configuration not stated)
46

Next compound: NCCc1cc(O)c(N)cc1O
5

Next compound: CC(N)Cc1cc(O)c(O)cc1O (configuration not stated)
26

Next compound: CC(N)Cc1cc(O)c(O)cc1N (configuration not stated)
8

---

experimentalSystem: Sodium-dependent dopamine transporter (Rattus norvegicus)
Sequence (P23977 whole entry): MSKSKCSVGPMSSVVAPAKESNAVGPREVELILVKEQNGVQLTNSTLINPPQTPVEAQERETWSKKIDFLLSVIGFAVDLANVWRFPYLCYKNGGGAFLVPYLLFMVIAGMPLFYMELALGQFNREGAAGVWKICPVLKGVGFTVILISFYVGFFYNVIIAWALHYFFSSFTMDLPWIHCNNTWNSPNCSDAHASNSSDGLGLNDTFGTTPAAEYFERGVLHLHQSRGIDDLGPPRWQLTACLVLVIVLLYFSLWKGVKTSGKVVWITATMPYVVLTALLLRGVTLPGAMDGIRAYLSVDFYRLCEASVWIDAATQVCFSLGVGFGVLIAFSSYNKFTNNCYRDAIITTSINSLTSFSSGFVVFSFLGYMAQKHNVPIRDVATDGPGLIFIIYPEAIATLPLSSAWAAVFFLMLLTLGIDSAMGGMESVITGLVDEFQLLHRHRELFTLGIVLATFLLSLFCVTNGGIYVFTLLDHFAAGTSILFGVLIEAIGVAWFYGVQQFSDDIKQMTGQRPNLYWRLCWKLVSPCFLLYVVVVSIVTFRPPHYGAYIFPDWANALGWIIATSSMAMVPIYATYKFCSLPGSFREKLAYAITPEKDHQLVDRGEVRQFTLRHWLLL
assayExplanation: Evaluated for the Competitive inhibition of uptake of dopamine transporter
resultType: Ki (µM)
Please give a number only; it is taken to be in µM.

Example cases with answers are listed next.
molecule	experimentalSystem	Ki / µM
CC(N)Cc1cc(N)c(O)cc1O (stereo not drawn)	Sodium-dependent dopamine transporter (Rattus norvegicus)	0.112
CC(N)Cc1cc(O)c(O)cc1N (stereo not drawn)	Sodium-dependent dopamine transporter (Rattus norvegicus)	0.009
NCCc1cc(O)c(O)cc1O	Sodium-dependent dopamine transporter (Rattus norvegicus)	0.012
NCCc1cc(N)c(O)cc1O	Sodium-dependent dopamine transporter (Rattus norvegicus)	0.047
CC(N)Cc1cc(O)c(N)cc1O (stereo not drawn)	Sodium-dependent dopamine transporter (Rattus norvegicus)	0.003
NCCc1cc(O)c(O)cc1N	Sodium-dependent dopamine transporter (Rattus norvegicus)	0.017
NCCc1cc(O)c(N)cc1O	Sodium-dependent dopamine transporter (Rattus norvegicus)	0.009

Field: next molecule
Request the reported Ki associated with CC(N)Cc1cc(O)c(O)cc1O (stereo not drawn)
0.016

---

Species on record: Mus musculus
assayExplanation: Long term depletion of Norepinephrine (NE) in Whole mouse Brain at a low dose (60 nmol)
Assay type: functional
resultType: Control (%)
Please give a number only; it is taken to be in %.

Example cases with answers are listed next.
molecule	Control [%]
NCCc1cc(N)c(O)cc1O	40
CC(N)Cc1cc(O)c(O)cc1N (stereo unspecified)	32

Request the reported Control associated with CC(N)Cc1cc(O)c(N)cc1O (stereo unspecified)
33

Next molecule: NCCc1cc(O)c(O)cc1O
40

Next molecule: CC(N)Cc1cc(O)c(O)cc1O (stereo unspecified)
25

Next molecule: NCCc1cc(O)c(N)cc1O
37
